tested on: HIV-1; details: dose achieving 50% protection of HIV-infected MT-4 cells, MTT, OD 540 nm
Each record is given fulfilled if its reported IC50 is strictly below 2 nM. Records at or above 2 nM are given not fulfilled.

>  <Query smiles>
CCSCc1c(C)[nH]c(=O)c(I)c1Oc1cc(C)cc(C)c1

>  <Group>
fulfilled

$$$$
>  <Query smiles>
Cc1cc(C)cc(Oc2c(CSCc3ccco3)c(C)[nH]c(=O)c2I)c1

>  <Group>
fulfilled

$$$$
>  <Query smiles>
Cc1cc(C)cc(Oc2c(CCO)c(C)[nH]c(=O)c2I)c1

>  <Group>
fulfilled

$$$$
>  <Query smiles>
CCc1c[nH]c(=O)c(I)c1Oc1cccc(C)c1

>  <Group>
not fulfilled

$$$$
>  <Query smiles>
CCOC(=O)CSCc1c(C)[nH]c(=O)c(I)c1Oc1cc(C)cc(C)c1

>  <Group>
not fulfilled

$$$$
>  <Query smiles>
CCc1c(C)[nH]c(=O)c(I)c1Oc1cc(C)cc(CCl)c1

>  <Group>
not fulfilled

$$$$
>  <Query smiles>
CCc1c(C)[nH]c(=O)c(I)c1Oc1cccc(C)c1

>  <Group>
fulfilled

$$$$
>  <Query smiles>
Cc1cc(C)cc(Sc2c(Cn3cccn3)c(C)[nH]c(=O)c2I)c1

>  <Group>
fulfilled

$$$$
>  <Query smiles>
Cc1cc(C)cc(Oc2c(CCCOCc3ccccc3)c(C)[nH]c(=O)c2I)c1

>  <Group>
not fulfilled

$$$$

---

tested on: HIV-1; details: dose achieving 50% protection of HIV-infected MT-4 cells, MTT, OD 540 nm
pIC50: −log10 of the molar value.

>  <Query smiles>
Cc1cc(C)cc(Oc2c(CCCO)c(C)[nH]c(=O)c2I)c1

>  <pIC50>
9.22

$$$$
>  <Query smiles>
CCc1c(C)[nH]c(=O)c(I)c1Oc1cccc(CO)c1

>  <pIC50>
8.20

$$$$
>  <Query smiles>
CCc1c(CCCO)[nH]c(=O)c(I)c1Oc1cc(C)cc(C)c1

>  <pIC50>
8.20

$$$$
>  <Query smiles>
Cc1cc(C)cc(Oc2c(C=CC#N)c(C)[nH]c(=O)c2I)c1

>  <pIC50>
8.20

$$$$
>  <Query smiles>
Cc1cc(C)cc(Oc2c(COCc3ccsc3)c(C)[nH]c(=O)c2I)c1

>  <pIC50>
8.40

$$$$
>  <Query smiles>
CCc1c(C)[nH]c(=O)c(I)c1Oc1cccc(Br)c1

>  <pIC50>
8.30

$$$$
>  <Query smiles>
Cc1cc(C)cc(Sc2c(/C=N/OCc3ccccc3)c(C)[nH]c(=O)c2I)c1

>  <pIC50>
8.10

$$$$
>  <Query smiles>
CC(=O)N1CCN(Cc2c(C)[nH]c(=O)c(I)c2Oc2cc(C)cc(C)c2)CC1

>  <pIC50>
8.00

$$$$
>  <Query smiles>
CON=Cc1c(C)[nH]c(=O)c(I)c1Sc1cc(C)cc(C)c1

>  <pIC50>
8.70

$$$$

---

system: mock-infected MT-4 cells; experiment: Cytotoxicity in mock-infected MT-4 cells (MTT); type: cell-based; details: concentration reducing absorbance of mock-infected MT-4 control by 50%

>  <Query smiles>
Cc1cc(C)cc(Sc2c(CSCc3cccs3)c(C)[nH]c(=O)c2I)c1

>  <CC50>
> 100 µM

$$$$
>  <Query smiles>
Cc1cc(C)cc(Oc2c(COCc3ccccc3)c(C)[nH]c(=O)c2I)c1

>  <CC50>
> 100 µM

$$$$
>  <Query smiles>
CON=Cc1c(C)[nH]c(=O)c(I)c1Oc1cc(C)cc(C)c1

>  <CC50>
> 32 µM

$$$$
>  <Query smiles>
CCOC(=O)NCc1c(C)[nH]c(=O)c(I)c1Oc1cc(C)cc(C)c1

>  <CC50>
> 10 µM

$$$$
>  <Query smiles>
Cc1cc(C)cc(Oc2c(CNC=O)c(C)[nH]c(=O)c2I)c1

>  <CC50>
> 32 µM

$$$$
>  <Query smiles>
CCSCc1c(C)[nH]c(=O)c(I)c1Oc1cc(C)cc(C)c1

>  <CC50>
> 10 µM

$$$$
